LACTATE DEHYDROGENASE overview
# Species: Rattus norvegicus
# method-notes: DrugMatrix - Regimen: Daily Repeat
# Type: toxicity, organism-based, Sprague-Dawley
# Design: regimen Daily Repeat, gender Male, age 6-8 weeks
# condition-details: in vivo, po, 0 mg/kg, 120 h, tissue Plasma, route oral GAVAGE, dose level Control, time 5 day, vehicle 100 % WATER
Number in u/L, nothing else.

Q. Which value of LACTATE DEHYDROGENASE has been reported for CN1CCC[C@H]1c1cccnc1 [NICOTINE] in the records?
A. 544.33

Q. Which value of LACTATE DEHYDROGENASE has been reported for COc1ccc(C(CN(C)C)C2(O)CCCCC2)cc1 (stereo not drawn) [VENLAFAXINE] in the records?
A. 168.5

Q. Which value of LACTATE DEHYDROGENASE has been reported for Cn1cnc([N+](=O)[O-])c1Sc1ncnc2nc[nH]c12 [AZATHIOPRINE] in the records?
A. 127

----------
# Species: Rattus norvegicus
# method-notes: DrugMatrix - Regimen: Daily Repeat
# Format: toxicity, organism-based, Sprague-Dawley
# Set-up: regimen Daily Repeat, gender Male, age 6-8 weeks
# condition-details: in vivo, po, 0 mg/kg, 120 h, tissue Plasma, route oral GAVAGE, dose level Control, time 5 day, […]
ALBUMIN overview
Number in G/DL, nothing else.

| compound | meas-value |
| --- | --- |
| O=[N+]([O-])c1cc([As](=O)(O)O)ccc1O | 3.74 |
| CCCC[C@@H](CC)COC(=O)c1ccccc1C(=O)OC[C@@H](CC)CCCC [BIS(2-ETHYLHEXYL)PHTHALATE] | 4.12 |
| CSc1ccc2c(c1)N(CCC1CCCCN1C)c1ccccc1S2 (stereo not given) | 4.17 |
| CC1=C(/C=C/C(C)=C/C=C/C(C)=C\C(=O)O)C(C)(C)CCC1 | 4.1 |

Moving on to the next compound.
Q. Which value of ALBUMIN has been reported for CN(C)CCCC1(c2ccc(F)cc2)OCc2cc(C#N)ccc21 (stereo not given) in the records?
A. 4.07

----------
# Species on record: Rattus norvegicus
# method-notes: DrugMatrix - Regimen: Daily Repeat
# Format: toxicity, organism-based, Sprague-Dawley
# Set-up: regimen Daily Repeat, gender Male, age 6-8 weeks
# condition-details: in vivo, po, 0 mg/kg, 72 h, tissue Plasma, route oral GAVAGE, dose level Control, time 3 day, vehicle 100 % WATER
POTASSIUM overview

Field: example entries. Status: answers known.
| compound | property | meas-value |
| --- | --- | --- |
| CC1COc2c(N3CCN(C)CC3)c(F)cc3c(=O)c(C(=O)O)cn1c23 (centres undefined) [OFLOXACIN] | POTASSIUM | 6.8 MEQ/L |
| Clc1ccc(C(c2ccccc2Cl)C(Cl)Cl)cc1 (centres undefined) [MITOTANE] | POTASSIUM | 6.12 MEQ/L |

Q. Which value of POTASSIUM has been reported for Nc1ccc(S(=O)(=O)Nc2ccnn2-c2ccccc2)cc1 [SULFAPHENAZOLE] in the records?
A. 5.95 MEQ/L

Q. Which value of POTASSIUM has been reported for CN1CCN(C(=O)OC2c3nccnc3C(=O)N2c2ccc(Cl)cn2)CC1 (centres undefined) [ZOPICLONE] in the records?
A. 5.99 MEQ/L

Q. Which value of POTASSIUM has been reported for NC(=O)c1ncn([C@@H]2O[C@H](CO)[C@@H](O)[C@H]2O)n1 [RIBAVIRIN] in the records?
A. 6.16 MEQ/L

Q. Which value of POTASSIUM has been reported for COc1cc2c(N3CCN(C(=O)Nc4ccc(OC(C)C)cc4)CC3)ncnc2cc1OCCCN1CCCCC1 [TANDUTINIB] in the records?
A. 6.72 MEQ/L

Q. Which value of POTASSIUM has been reported for CC(CCc1ccccc1)NCC(O)c1ccc(O)c(C(N)=O)c1 (centres undefined) [LABETALOL] in the records?
A. 6.78 MEQ/L

Q. Which value of POTASSIUM has been reported for CC(C)(S)[C@@H](N)C(=O)O [PENICILLAMINE] in the records?
A. 5.85 MEQ/L

Q. Which value of POTASSIUM has been reported for COc1ccc(C(CN(C)C)C2(O)CCCCC2)cc1 (centres undefined) [VENLAFAXINE] in the records?
A. 6.58 MEQ/L
